Tested on: Staphylococcus aureus
Assay: Antibacterial activity against methicillin-resistant Staphylococcus aureus ATCC 33591 after 24 hrs by tecan plate reader analysis
Format: functional
Settings: ATCC 33591, 24 h
quantity_name: log10 of MIC (log10 of the value in mg/L)
Reminder: these figures are log10 of reported MIC, in mg/L before transformation.

compound: CCCCCCCCCCCCNC(=O)C[N+](C)(CCO)CCC[N+](C)(CCO)CC(=O)NCCCCCCCCCCCC.[Br-].[Br-] (stereo not given)
quantity_name: log10 of MIC
measured: 0.30

compound: CCCCCCCCCCNC(=O)C[N+](C)(CCO)CCCCCC[N+](C)(CCO)CC(=O)NCCCCCCCCCC.[Br-].[Br-] (stereo not given)
quantity_name: log10 of MIC
measured: -0.30

compound: CCCCCCCCCCNC(=O)C[N+](C)(CCO)CCCCCCCCCC[N+](C)(CCO)CC(=O)NCCCCCCCCCC.[Br-].[Br-] (stereo not given)
quantity_name: log10 of MIC
measured: -0.30

compound: CCCCCCCCNC(=O)C[N+](C)(CCO)CCCCCCCCCCCC[N+](C)(CCO)CC(=O)NCCCCCCCC.[Br-].[Br-] (stereo not given)
quantity_name: log10 of MIC
measured: -0.60

compound: CCCCCCCCNC(=O)C[N+](C)(CCO)CCC[N+](C)(CCO)CC(=O)NCCCCCCCC.[Br-].[Br-] (stereo not given)
quantity_name: log10 of MIC
measured: 0.30

compound: CCCCCCNC(=O)C[N+](C)(CCO)CCC[N+](C)(CCO)CC(=O)NCCCCCC.O=C([O-])C(F)(F)F.O=C([O-])C(F)(F)F (stereo not given)
quantity_name: log10 of MIC
measured: 2.41

compound: CCCCCCNC(=O)C[N+](C)(CCO)CCCCCC[N+](C)(CCO)CC(=O)NCCCCCC.O=C([O-])C(F)(F)F.O=C([O-])C(F)(F)F (stereo not given)
quantity_name: log10 of MIC
measured: 2.41

compound: CCCCCCCCCCCCNC(=O)C[N+](C)(CCO)CCCCCCCC[N+](C)(CCO)CC(=O)NCCCCCCCCCCCC.[Br-].[Br-] (stereo not given)
quantity_name: log10 of MIC
measured: 0.30

Observed log10 of MIC on Staphylococcus aureus, entry CCCCCCCCCCNC(=O)C[N+](C)(CCO)CCCCCCCC[N+](C)(CCO)CC(=O)NCCCCCCCCCC.[Br-].[Br-] (stereo not given) , equals -0.30

Observed log10 of MIC on Staphylococcus aureus, entry CCCCCCCCCCCCNC(=O)C[N+](C)(CCO)CCCCCCCCCC[N+](C)(CCO)CC(=O)NCCCCCCCCCCCC.[Br-].[Br-] (stereo not given) , equals 0.60

====

Experiment: Hemolytic activity in human erythrocytes after 1 hr
Type: ADME, cell-based, Erythrocyte
API: label(entry) gives Criterion met if the entry's HC50 at 1 h is strictly smaller than 30 µg/mL; on equality or larger values it gives Criterion not met.

compound: CCCCCCCCNC(=O)C[N+](C)(CCO)CCCCCCCC[N+](C)(CCO)CC(=O)NCCCCCCCC.[Br-].[Br-] (stereo unspecified)
class_assignment: Criterion not met
//
compound: CCCCCCCCNC(=O)C[N+](C)(CCO)CCCCCCCCCC[N+](C)(CCO)CC(=O)NCCCCCCCC.[Br-].[Br-] (stereo unspecified)
class_assignment: Criterion met
//
compound: CCCCCCCCNC(=O)C[N+](C)(CCO)CCC[N+](C)(CCO)CC(=O)NCCCCCCCC.[Br-].[Br-] (stereo unspecified)
class_assignment: Criterion not met
//
compound: CCCCCCCCCCNC(=O)C[N+](C)(CCO)CCCCCCCC[N+](C)(CCO)CC(=O)NCCCCCCCCCC.[Br-].[Br-] (stereo unspecified)
class_assignment: Criterion met
//
compound: CCCCCCNC(=O)C[N+](C)(CCO)CCCCCCCC[N+](C)(CCO)CC(=O)NCCCCCC.O=C([O-])C(F)(F)F.O=C([O-])C(F)(F)F (stereo unspecified)
class_assignment: Criterion not met

Field: next compound
Input CCCCCCCCCCCCNC(=O)C[N+](C)(CCO)CCCCCC[N+](C)(CCO)CC(=O)NCCCCCCCCCCCC.[Br-].[Br-] (stereo unspecified) ; condition: HC50 at 1 h strictly below 30 µg/mL. Does it hold?
Criterion not met

====

Reported MIC values for a set of compounds
System: Staphylococcus aureus
Assay: Antibacterial activity against methicillin-resistant Staphylococcus aureus ATCC 33591 after 24 hrs by tecan plate reader analysis
Assay type: functional
Conditions: ATCC 33591, 24 h
Return type: number; implicit unit mg/L.

compound: CCCCCCCCCCNC(=O)C[N+](C)(CCO)CCC[N+](C)(CCO)CC(=O)NCCCCCCCCCC.[Br-].[Br-] (configuration not stated)
display_unit: mg/L
measured: 1

MIC measured on CCCCCCCCCCNC(=O)C[N+](C)(CCO)CCCCCCCCCCCC[N+](C)(CCO)CC(=O)NCCCCCCCCCC.[Br-].[Br-] (configuration not stated) = 2

MIC measured on CCCCCCNC(=O)C[N+](C)(CCO)CCCCCCCCCC[N+](C)(CCO)CC(=O)NCCCCCC.O=C([O-])C(F)(F)F.O=C([O-])C(F)(F)F (configuration not stated) = 8

MIC measured on CCCCCCNC(=O)C[N+](C)(CCO)CCCCCCCC[N+](C)(CCO)CC(=O)NCCCCCC.O=C([O-])C(F)(F)F.O=C([O-])C(F)(F)F (configuration not stated) = 128

====

Reported MIC values for a set of compounds
Test system: Escherichia coli
Experiment: Antibacterial activity against Escherichia coli MTCC 443 after 24 hrs by tecan plate reader analysis
Type: functional
Conditions: MTCC 443, 24 h
Return type: number; implicit unit µg/mL.

compound: CCCCCCNC(=O)C[N+](C)(CCO)CCCCCCCCCCCC[N+](C)(CCO)CC(=O)NCCCCCC.O=C([O-])C(F)(F)F.O=C([O-])C(F)(F)F (stereo not given)
MIC [µg/mL]: 2

Observed MIC on Escherichia coli, entry CCCCCCCCCCNC(=O)C[N+](C)(CCO)CCCCCC[N+](C)(CCO)CC(=O)NCCCCCCCCCC.[Br-].[Br-] (stereo not given) , equals 1

Observed MIC on Escherichia coli, entry CCCCCCCCCCCCNC(=O)C[N+](C)(CCO)CCCCCCCCCC[N+](C)(CCO)CC(=O)NCCCCCCCCCCCC.[Br-].[Br-] (stereo not given) , equals 32

Observed MIC on Escherichia coli, entry CCCCCCCCCCCCNC(=O)C[N+](C)(CCO)CCCCCCCC[N+](C)(CCO)CC(=O)NCCCCCCCCCCCC.[Br-].[Br-] (stereo not given) , equals 32

Observed MIC on Escherichia coli, entry CCCCCCCCCCNC(=O)C[N+](C)(CCO)CCCCCCCCCCCC[N+](C)(CCO)CC(=O)NCCCCCCCCCC.[Br-].[Br-] (stereo not given) , equals 4

====

Experiment: Ratio of EC50 for dog MDCK cells to MIC for vancomycin-resistant Staphylococcus aureus clinical isolate 2
Format: toxicity
quantity_name: selectivity ratio
Keep it simple and answer with nothing but the number.

selectivity ratio measured on CCCCCCCCNC(=O)C[N+](C)(CCO)CCCCCC[N+](C)(CCO)CC(=O)NCCCCCCCC.[Br-].[Br-] (configuration not stated) = 22

====

Experiment: Ratio of EC50 for dog MDCK cells to MIC for vancomycin-resistant Staphylococcus aureus clinical isolate 1
Type: toxicity
quantity_name: selectivity ratio
Keep it simple and answer with nothing but the number.

selectivity ratio measured on CCCCCCCCNC(=O)C[N+](C)(CCO)CCCCCC[N+](C)(CCO)CC(=O)NCCCCCCCC.[Br-].[Br-] (configuration not stated) = 22

====

Reported HC50 at 1 h values for a set of molecules
Test: Hemolytic activity in human erythrocytes after 1 hr
Format: ADME, cell-based, Erythrocyte
Return type: number; implicit unit µg/mL.

molecule: CCCCCCCCCCNC(=O)C[N+](C)(CCO)CCCCCCCCCCCC[N+](C)(CCO)CC(=O)NCCCCCCCCCC.[Br-].[Br-] (centres undefined)
measured: 16
//
molecule: CCCCCCCCCCNC(=O)C[N+](C)(CCO)CCCCCC[N+](C)(CCO)CC(=O)NCCCCCCCCCC.[Br-].[Br-] (centres undefined)
measured: 31
//
molecule: CCCCCCCCCCCCNC(=O)C[N+](C)(CCO)CCCCCCCCCCCC[N+](C)(CCO)CC(=O)NCCCCCCCCCCCC.[Br-].[Br-] (centres undefined)
measured: 22

HC50 at 1 h measured on CCCCCCNC(=O)C[N+](C)(CCO)CCCCCCCCCCCC[N+](C)(CCO)CC(=O)NCCCCCC.O=C([O-])C(F)(F)F.O=C([O-])C(F)(F)F (centres undefined) = 577

HC50 at 1 h measured on CCCCCCCCCCNC(=O)C[N+](C)(CCO)CCC[N+](C)(CCO)CC(=O)NCCCCCCCCCC.[Br-].[Br-] (centres undefined) = 34

HC50 at 1 h measured on CCCCCCCCNC(=O)C[N+](C)(CCO)CCCCCCCCCCCC[N+](C)(CCO)CC(=O)NCCCCCCCC.[Br-].[Br-] (centres undefined) = 12

HC50 at 1 h measured on CCCCCCCCCCCCNC(=O)C[N+](C)(CCO)CCC[N+](C)(CCO)CC(=O)NCCCCCCCCCCCC.[Br-].[Br-] (centres undefined) = 37

HC50 at 1 h measured on CCCCCCCCNC(=O)C[N+](C)(CCO)CCCCCC[N+](C)(CCO)CC(=O)NCCCCCCCC.[Br-].[Br-] (centres undefined) = 222

HC50 at 1 h measured on CCCCCCCCCCCCNC(=O)C[N+](C)(CCO)CCCCCCCCCC[N+](C)(CCO)CC(=O)NCCCCCCCCCCCC.[Br-].[Br-] (centres undefined) = 32

HC50 at 1 h measured on CCCCCCCCCCNC(=O)C[N+](C)(CCO)CCCCCCCCCC[N+](C)(CCO)CC(=O)NCCCCCCCCCC.[Br-].[Br-] (centres undefined) = 18

HC50 at 1 h measured on CCCCCCCCCCCCNC(=O)C[N+](C)(CCO)CCCCCCCC[N+](C)(CCO)CC(=O)NCCCCCCCCCCCC.[Br-].[Br-] (centres undefined) = 29

// provenance: ChEMBL document CHEMBL4373680
